- run_description: capillary depletion analysis after in situ brain perfusion
- Assay type: in vivo, mouse
- cond: male, BALB/c, mouse, capillary depletion supernatant (brain parenchyma), other: in situ brain perfusion, Difference (ADMA minus Sucrose), supernatant, CONTROL, 10 mins, Balb/c ♂, 5ml/min; mean
Counter-ions that a name gives are not always drawn.
experimental_endpoint: Kp at 10 min, 62.5 nM

[[record]]
molecule = "CN(C)C(N)=NCCC[C@H](N)C(=O)O [ADMA, N^G,N^G-dimethylarginine dihydrochloride]"
result = 0.0862


====

- run_description: cross-inhibition, in situ perfusion: [^3H]-arginine with 0.5–500 μM unlabelled ADMA
- Assay type: in vivo, mouse
- cond: male, Balb/c, mouse, pons, other: in situ brain perfusion, with unlabelled ADMA 3 µM, Arginine / Sucrose uptake, pons, mean, [3H] Arginine + [14C] Sucrose + 3 uM ADMA, 10 mins, Balb/c ♂, 5ml/min; mean
experimental_endpoint: Kp at 10 min

[[record]]
compound = "OC[C@H]1O[C@@](CO)(O[C@H]2O[C@H](CO)[C@@H](O)[C@H](O)[C@H]2O)[C@@H](O)[C@@H]1O [[^14C]-sucrose, reference compound]"
result = 0.0612


====

- run_description: in situ brain/choroid plexus perfusion: CNS uptake of [^3H]-arginine, [^3H]-ADMA and [^14C]-sucrose (multiple-time and single-time uptake analysis)
- cond: male, BALB/c, mouse, choroid plexus, Difference (ADMA minus Sucrose), 2.5 mins, 5ml/min; mean
Structures can show the parent of a compound that is named as a salt.
experimental_endpoint: Kp at […], 62.5 nM

[[record]]
molecule = "CN(C)C(N)=NCCC[C@H](N)C(=O)O [ADMA, N^G,N^G-dimethylarginine dihydrochloride]"
result = 0.671


====

- Tested on: [3H]-ADMA transport across the blood-brain and blood-CSF barriers
- run_description: self-inhibition, in situ perfusion: [^3H]-ADMA with 100 μM unlabelled ADMA
- Type: in vivo, mouse
- cond: male, Balb/c, mouse, homogenate, other: in situ brain perfusion, with unlabelled ADMA 100 µM, [3H] ADMA + [14C] Sucrose + 100uM un-labelled ADMA, 10 mins, Balb/c ♂, 5ml/min; mean; read-out: uptake, homogenate
Counter-ions that a name gives are not always drawn.
experimental_endpoint: Kp at 10 min, 62.5 nM

[[record]]
compound = "CN(C)C(N)=NCCC[C@H](N)C(=O)O [ADMA, N^G,N^G-dimethylarginine dihydrochloride]"
study_target = "[3H]-ADMA transport across the blood-brain and blood-CSF barriers"
experimental_endpoint = "Kp at 10 min, 62.5 nM"
result = 0.0884


====

- run_description: in situ brain/choroid plexus perfusion: CNS uptake of [^3H]-arginine, [^3H]-ADMA and [^14C]-sucrose (multiple-time and single-time uptake analysis)
- cond: male, BALB/c, mouse, occipital cortex, [3H] ADMA and [14C] Sucrose uptake, 20 mins, 5ml/min; mean
Counter-ions that a name gives are not always drawn.
experimental_endpoint: Kp at 20 min, 62.5 nM

[[record]]
compound = "CN(C)C(N)=NCCC[C@H](N)C(=O)O [ADMA, N^G,N^G-dimethylarginine dihydrochloride]"
result = 0.293


====

In this section, each of the molecules is paired with its reported Kp at 10 min, 62.5 nM.
- run_description: cross-inhibition, in situ perfusion: [^3H]-ADMA with 100 μM unlabelled L-arginine
- Type: in vivo, mouse
- cond: male, Balb/c, mouse, brain homogenate, other: in situ brain perfusion, with 100 µM unlabelled L-arginine, [3H] ADMA + [14C] Sucrose + 100uM Arg, 10 mins, Balb/c ♂, 5ml/min; mean; read-out: uptake, homogenate
Where a name gives a salt, the structure may show the parent alone.
experimental_endpoint: Kp at 10 min, 62.5 nM

[[record]]
molecule = "CN(C)C(N)=NCCC[C@H](N)C(=O)O [ADMA, N^G,N^G-dimethylarginine dihydrochloride]"
experimental_endpoint = "Kp at 10 min, 62.5 nM"
result = 0.063

[[record]]
molecule = "OC[C@H]1O[C@@](CO)(O[C@H]2O[C@H](CO)[C@@H](O)[C@H](O)[C@H]2O)[C@@H](O)[C@@H]1O [[^14C]-sucrose, reference compound]"
experimental_endpoint = "Kp at 10 min, 62.5 nM"
result = 0.0365


====

- run_description: in situ brain/choroid plexus perfusion: CNS uptake of [^3H]-arginine, [^3H]-ADMA and [^14C]-sucrose (multiple-time and single-time uptake analysis)
- cond: male, BALB/c, mouse, in vivo, tissue or CSF to plasma ratio (mean), thalamus; 20 mins; uncorrected; given as fraction
experimental_endpoint: Kp at 20 min

[[record]]
compound = "OC[C@H]1O[C@@](CO)(O[C@H]2O[C@H](CO)[C@@H](O)[C@H](O)[C@H]2O)[C@@H](O)[C@@H]1O [[^14C]-sucrose, reference compound]"
result = 0.0672


====

- run_description: capillary depletion analysis after in situ brain perfusion
- Format: in vivo, mouse
- cond: male, BALB/c, mouse, capillary depletion supernatant (brain parenchyma), other: in situ brain perfusion, Difference (ADMA minus Sucrose), supernatant, 30 mins, Balb/c ♂, 5ml/min; mean
Structures can show the parent of a compound that is named as a salt.
experimental_endpoint: Kp at 30 min, 62.5 nM

[[record]]
compound = "CN(C)C(N)=NCCC[C@H](N)C(=O)O [ADMA, N^G,N^G-dimethylarginine dihydrochloride]"
result = 0.0722


====

- Test system: [3H]-ADMA transport across the blood-brain and blood-CSF barriers
- run_description: cross-inhibition, in situ perfusion: [^3H]-ADMA with 100 μM unlabelled L-arginine
- Format: in vivo, mouse
- cond: male, Balb/c, mouse, cerebellum, other: in situ brain perfusion, with 100 µM unlabelled L-arginine, [3H] ADMA + [14C] Sucrose + 100uM Arg, 10 mins, Balb/c ♂, 5ml/min; mean; read-out: uptake into cerebellum
Structures can show the parent of a compound that is named as a salt.
experimental_endpoint: Kp at 10 min, 62.5 nM

[[record]]
compound = "CN(C)C(N)=NCCC[C@H](N)C(=O)O [ADMA, N^G,N^G-dimethylarginine dihydrochloride]"
result = 0.0673


====

- run_description: cross-inhibition, in situ perfusion: [^3H]-arginine with 0.5–500 μM unlabelled ADMA
- Format: in vivo, mouse
- cond: male, Balb/c, mouse, choroid plexus, other: in situ brain perfusion, with 0.5 µM unlabelled ADMA, choroid plexus: [14C] Sucrose, + 0.5 uM ADMA, 10 mins, Balb/c ♂, 5ml/min; mean
experimental_endpoint: Kp at 10 min

[[record]]
molecule = "OC[C@H]1O[C@@](CO)(O[C@H]2O[C@H](CO)[C@@H](O)[C@H](O)[C@H]2O)[C@@H](O)[C@@H]1O [[^14C]-sucrose, reference compound]"
experimental_endpoint = "Kp at 10 min"
result = 0.162


====

- Test system: [3H]-ADMA transport across the blood-brain and blood-CSF barriers
- run_description: cross-inhibition, in situ perfusion: [^3H]-ADMA with 100 μM unlabelled L-arginine
- Format: in vivo, mouse
- cond: male, Balb/c, mouse, pons, other: in situ brain perfusion, with 100 µM unlabelled L-arginine, [3H] ADMA + [14C] Sucrose + 100uM Arg, 10 mins, Balb/c ♂, 5ml/min; mean; read-out: uptake into pons
- Procedure: Self-inhibition experiments were also performed. […] Cross-competition experiments were also performed. The percentage change in the RTissue uptake values achieved in the absence or presence of an unlabelled inhibitor can be calculated by means of Eq 4. %change=RTissue−RInhibition/RTissue×100 Eq 4 We define RInhibition as the RTissue uptake in the presence of an inhibitor in the artificial plasma. […]
Structures can show the parent of a compound that is named as a salt.
In this section, each of the molecules is paired with its reported Kp at 10 min, 62.5 nM.
experimental_endpoint: Kp at 10 min, 62.5 nM

[[record]]
molecule = "CN(C)C(N)=NCCC[C@H](N)C(=O)O [ADMA, N^G,N^G-dimethylarginine dihydrochloride]"
result = 0.0946

[[record]]
molecule = "OC[C@H]1O[C@@](CO)(O[C@H]2O[C@H](CO)[C@@H](O)[C@H](O)[C@H]2O)[C@@H](O)[C@@H]1O [[^14C]-sucrose, reference compound]"
result = 0.0462


====

- run_description: capillary depletion analysis after in situ brain perfusion
- Format: in vivo, mouse
- cond: male, BALB/c, mouse, endothelial cell-enriched pellet (capillary depletion), other: in situ brain perfusion, Difference (ADMA minus Sucrose), pellet, 30 mins, Balb/c ♂, 5ml/min; individual mice
Counter-ions that a name gives are not always drawn.
experimental_endpoint: Kp at 30 min, 62.5 nM

[[record]]
compound = "CN(C)C(N)=NCCC[C@H](N)C(=O)O [ADMA, N^G,N^G-dimethylarginine dihydrochloride]"
result = 0.0153


====

- System: [3H]-ADMA transport across the blood-brain and blood-CSF barriers
- run_description: cross-inhibition, in situ perfusion: [^3H]-ADMA with 100 μM unlabelled L-arginine
- Format: in vivo, mouse
- cond: male, Balb/c, mouse, hypothalamus, other: in situ brain perfusion, with 100 µM unlabelled L-arginine, Difference (ADMA minus Sucrose), hypothalamus, + 100uM Arg, 10 mins, Balb/c ♂, 5ml/min; individual mice
Counter-ions that a name gives are not always drawn.
experimental_endpoint: Kp at 10 min, 62.5 nM

[[record]]
molecule = "CN(C)C(N)=NCCC[C@H](N)C(=O)O [ADMA, N^G,N^G-dimethylarginine dihydrochloride]"
result = 0.0699


Cited source for all entries: paper PMC11501026
